Data credit: ChEMBL document CHEMBL1123840

Quick reference for IC50 ratio among some molecules
# measured-target: Mu-type opioid receptor (Homo sapiens) (UniProt P35372)
# Sequence (P35372 whole entry): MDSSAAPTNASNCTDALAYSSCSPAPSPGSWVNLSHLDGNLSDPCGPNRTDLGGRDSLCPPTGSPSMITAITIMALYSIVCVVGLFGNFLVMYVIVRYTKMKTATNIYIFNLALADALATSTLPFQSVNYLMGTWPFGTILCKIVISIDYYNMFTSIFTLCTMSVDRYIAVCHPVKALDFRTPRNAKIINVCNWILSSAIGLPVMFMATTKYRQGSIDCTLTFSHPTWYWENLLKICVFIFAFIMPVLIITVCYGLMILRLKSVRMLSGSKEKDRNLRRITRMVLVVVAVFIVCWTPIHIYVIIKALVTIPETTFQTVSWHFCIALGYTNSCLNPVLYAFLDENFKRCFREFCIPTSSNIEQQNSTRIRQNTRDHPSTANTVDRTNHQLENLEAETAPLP
# measurement-protocol: Ratio of IC50 of […] (agonist) after 10 min of incubation along with compound (antagonist) and IC50 of agonist in absence of compound for mu opioid receptor at 1 uM in MVD assay
# Format: functional
# run-parameters: Mus musculus
Square brackets hold non-standard residues; d marks the D form. Peptide text beside a SMILES is read from it. * marks the point of attachment. Tyr(Nα,Nα-Bn2) = O=C([C@H](Cc1ccc(O)cc1)N(Cc1ccccc1)Cc1ccccc1)*; Phe(4-N(CH2CH2Cl)2) = N[C@@H](Cc1ccc(N(CCCl)CCCl)cc1)C(=O)O; Tyr(Nα,Nα-allyl2) = C=CCN(CC=C)[C@@H](Cc1ccc(O)cc1)C(=O)*; Aib = CC(C)(N)C(=O)O
API doc: respond with a numeric literal and nothing else, no unit.

See these solved cases before continuing.
# molecule, IC50 ratio
data = [
    ("C=CCN(CC=C)[C@@H](Cc1ccc(O)cc1)C(=O)NCC(=O)NCC(=O)N[C@@H](Cc1ccc(N(CCCl)CCCl)cc1)C(=O)N[C@@H](CC(C)C)C(=O)O ({Tyr(Nα,Nα-allyl2)}-GG[Phe(4-N(CH2CH2Cl)2)]L-OH)", 1.1),
    ("CC(C)C[C@H](NC(=O)[C@H](Cc1ccccc1)NC(=O)CNC(=O)CNC(=O)[C@H](Cc1ccc(O)cc1)N(Cc1ccccc1)Cc1ccccc1)C(=O)O ({Tyr(Nα,Nα-Bn2)}-GGFL-OH)", 0.6),
]

Lookup: Report IC50 ratio for C=CCN(CC=C)[C@@H](Cc1ccc(O)cc1)C(=O)NCC(=O)NCC(=O)N[C@@H](Cc1ccccc1)C(=O)N[C@@H](CC(C)C)C(=O)O ({Tyr(Nα,Nα-allyl2)}-GGFL-OH) please.
Found: 0.8

Lookup: State the recorded IC50 ratio for this entry: CC(C)C[C@H](NC(=O)[C@H](Cc1ccc(N(CCCl)CCCl)cc1)NC(=O)C(C)(C)NC(=O)C(C)(C)NC(=O)[C@H](Cc1ccc(O)cc1)N(Cc1ccccc1)Cc1ccccc1)C(=O)O ({Tyr(Nα,Nα-Bn2)}-[Aib][Aib][Phe(4-N(CH2CH2Cl)2)]L-OH)
Found: 1

Lookup: Fill in: IC50 ratio of CC(C)C[C@H](NC(=O)[C@H](Cc1ccccc1)NC(=O)C(C)(C)NC(=O)C(C)(C)NC(=O)[C@H](Cc1ccc(O)cc1)N(Cc1ccccc1)Cc1ccccc1)C(=O)O ({Tyr(Nα,Nα-Bn2)}-[Aib][Aib]FL-OH) is ___
Found: 1
